src = PubChem BioAssay (NCI)

- METHOD SUMMARY: NCI Yeast Anticancer Drug Screen. Data for the rad50 strain (AID 155);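 further: 0% = growth of vehicle-only cultures of the same strain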
- ASSAY CONTEXT: S. cerevisiae rad50 strain growth inhibition; at 50.0 µM (retest, dose inferred, filed as 5.0); stronger effect = higher value
About 79,000 compounds went through this panel and 15% of them were active in at least one assay; those are over-represented in the sample as a whole.
MEASURED METRIC: growth inhibition (%)

* COc1ccc2c(c1)CCCN2CCCCCCCN1CCCCC1 | 49
* COc1ccc(-c2cc(-c3ccc(OC)cc3OC)[n+](C)c(-c3ccc(OC)cc3OC)c2)cc1 | 98
* O=[N+]([O-])c1c(Cl)c(Cl)c(O)c(Cl)c1Cl | 80
* CC(C)SC(=S)Nc1cc(C(F)(F)F)ccc1Cl | 99
* CCC[CH2][Sn]([CH2]CCC)([O]C(=O)C(OC)c1ccccc1)[O]C(=O)C(OC)c1ccccc1 (stereo unspecified) | 97
* CCC(=O)OC1=C(Br)C(=O)c2ccccc2C1=O | 85
* COc1cccc2c1C(=O)c1c(O)c3c(c(O)c1C2=O)CC(O)(C(C)=O)CC3OC1OC(COC(C)=O)C(OC(C)=O)C(OC(C)=O)C1OC(C)=O (stereo unspecified) | 58
* NC(N)=NS(=O)(=O)c1ccc(N=Cc2c3ccccc3nc3cc(Cl)ccc23)cc1 | -4
* COC(=O)C(CCC(=O)Cc1ccccc1)N1C(=O)c2ccccc2C1=O (stereo unspecified) | 67
* OC1OCC(OCc2ccccc2)C(OCc2ccccc2)C1OCc1ccccc1 (stereo unspecified) | 61
* CN(C)C=NCCNc1ccc([N+](=O)[O-])cn1 | -166
* CC(C)O[C@H]1N(C2CC(N=[N+]=[N-])C(CO)O2)C(=O)NC(=O)[C@]1(C)Br (stereo partly specified) | 48
* CC(=O)C1CCCCC1/C=C/[N+](=O)[O-] (stereo unspecified) | 93
* O=C(O)CCC(=O)c1ccc2c(c1)CCCC2 | -1
* O=C(C[n+]1cccc2ccccc21)c1ccc(-c2ccc(C(=O)C[n+]3cccc4ccccc43)cc2)cc1 | 32
* c1ccc(N=C2SC3=NCCN3C2=Nc2ccccc2)cc1 | 87
* CN(C)/N=C1\CC(c2ccccc2)C(C#N)(C#N)C1(C#N)C#N (stereo unspecified) | 99
* CCCCC(=O)N/N=C(\C)[C@]1(O)Cc2c(O)c3c(c(O)c2[C@@H](OC2CC(N)C(O)C(C)O2)C1)C(=O)c1c(OC)cccc1C3=O (stereo partly specified) | 97
* NC1=NOC(=O)C1Cc1ccccc1 (stereo unspecified) | -1
* CC1(C)CC(=O)C(CSC(=O)c2ccccc2)=C(O)C1 | 17
* CCOC(=O)C1(C#N)C(c2ccccc2)C1(C#N)C#N (stereo unspecified) | 85
